Entry source: PubChem BioAssay (Tox21)

- experiment: p53 small molecule agonists, cell-based qHTS assay with human liver microsomes: qHTS cell viability counter screen (AID 1963579); note: nearly all actives have a fitted effect of over 45% in size
- condition details: p53RE-bla HCT-116 viability, ATP luminescence, 16 h, HLM; series mostly up to 66 µM
Records with an inconclusive call do not appear. The source made the active and inactive calls. Calls come from the whole dose curve.
metric: outcome

- OCC1CC=CCC1 (stereo not drawn): inactive
- CC(=O)c1c(C)c([N+](=O)[O-])c(C(C)(C)C)c([N+](=O)[O-])c1C: inactive
- COc1cc(Nc2c(C#N)cnc3cc(OCCCN4CCN(C)CC4)c(OC)cc23)c(Cl)cc1Cl: inactive

----------
- study target: Beta-2 adrenergic receptor (Homo sapiens)
- experiment: Adrenergic beta2 receptor (ADRB2) small molecule antagonists, cell-based qHTS assay (AID 1963592); note: nearly all actives have a fitted effect of over 50% in size
- condition details: CHO-ADRB2 cells, isoproterenol-stimulated cAMP HTRF ratio, 0.5 h; series mostly up to 92.4 µM
Inconclusive results are not listed. Activity calls are given as the source filed them. Calls come from the whole dose curve.
Write down one outcome, taken from label 1 = active, label 0 = inactive

Completed entries (count: 4):
• Cc1[nH]cnc1C[C@H]1CCc2c(C)c3ccccc3n2C1=O = label 1
• C[C@H]1C[C@H]2[C@@H]3CCC4=CC(=O)C=C[C@]4(C)[C@@]3(Cl)[C@@H](O)C[C@]2(C)[C@@]1(O)C(=O)CO = label 0
• CCCCCC/C=C\CCCCCCCC(=O)O = label 0
• CC(CN)CC(C)(C)CCN (stereo not given) = label 0

Req: Recorded test outcome, item O=C(NS(=O)(=O)/C=C/c1cccs1)c1ccc(F)cc1Br
Resp: label 0
